Reference source for all entries: the supplement of paper PMC10567573

B1: HESX1 (parent)
chain: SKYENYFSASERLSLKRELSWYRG

Variants of: B1
TEST DESCRIPTION: protein stability index of a GFP-peptide fusion (GPS, HEK-293T) (PSI 1-6); higher = more stable;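 also: lentivirally expressed fusions sorted by FACS into six bins by GFP to DsRed ratio, PSI derived from sequencing read proportions per bin multiplied by bin number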
APPLIED CONDITIONS: c terminus: a fixed tail appended
REPORTED ENDPOINT: protein stability index
Answer with the value's number alone.

Some entries whose results are on file:
MUTATION KEY: Y22K
protein stability index: 2.46
--
MUTATION KEY: E11T
protein stability index: 1.67
--
MUTATION KEY: Y22P
protein stability index: 2.29

May I ask what protein stability index has been recorded for `F7G` ?
1.42

Sample `L13F` — what was its protein stability index?
1.65

Which protein stability index is reported for this variant? `Y22Q`
1.7

Recorded protein stability index for `A9Y` , please?
2.08

Using the record for `R23F` , report its protein stability index.
2.16

Report protein stability index for `Y3I` please.
2.26

Please give the measured protein stability index for this variant: `Y3R`
2.13

Which measured protein stability index value corresponds to `E18G` ?
1.87

Data request, read-out protein stability index, for `K16N`
2.17

I have this variant here, `R12N` , and I need its recorded protein stability index.
1.79

Look up protein stability index for this variant: `K2Q`
2.65

Given the variant `S14F` , what is its reported protein stability index?
1.73
